tested.system: IDH1 R132H (Homo sapiens, UniProt O75874, R132H)
Sequence (O75874 whole entry R132H): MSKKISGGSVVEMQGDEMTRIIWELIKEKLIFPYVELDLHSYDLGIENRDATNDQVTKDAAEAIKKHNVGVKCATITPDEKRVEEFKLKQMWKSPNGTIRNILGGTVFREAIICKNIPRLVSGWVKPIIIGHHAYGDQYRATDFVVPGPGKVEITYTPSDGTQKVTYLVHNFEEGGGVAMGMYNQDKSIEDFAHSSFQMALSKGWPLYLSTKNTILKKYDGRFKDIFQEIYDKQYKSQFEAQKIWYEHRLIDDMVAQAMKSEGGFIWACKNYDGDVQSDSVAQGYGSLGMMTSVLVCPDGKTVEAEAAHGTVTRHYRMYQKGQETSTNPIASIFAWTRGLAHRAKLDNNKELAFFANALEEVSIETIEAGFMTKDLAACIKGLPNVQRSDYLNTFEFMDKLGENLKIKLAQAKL
method.description: IDH1 R132H enzymatic assay (NADPH depletion coupled to diaphorase/resazurin)
Assay type: biochemical
cond: IDH1 R132H enzymatic inhibition, IC50 class
pIC50: −log10 of the molar value.
pIC50 listing for selected compounds.

{"compound": "Cc1noc(-n2c3c(cc(-c4nc(-c5ccc(Cl)cc5)cs4)c2=O)C(=O)CC(C)(C)C3)c1C", "tested.system": "IDH1 R132H (Homo sapiens, UniProt O75874, R132H)", "pIC50": "5.30 to 6.00"}

Please look at the following compound next.
Fill in: IDH1 R132H (Homo sapiens, UniProt O75874, R132H) pIC50 for CC(c1ccccc1)n1c2c(cc(-c3nc(-c4ccc(Cl)cc4)cs3)c1=O)C(=O)CC(C)(C)C2 (centres unmarked) = < 4.70
